- Test system: SK-OV-3 ovarian
- Assay Explanation: NCI-60 one-dose screen, 48 h (100 = growth as untreated, 0 = no growth, -100 = all killed)
- Measurement Setup: 10 µM unless noted
- Method: Growth inhibition of the SK-OV-3 human tumor cell line is measured as a screen for anti-cancer activity. Cells are grown in 96 well plates and exposed to the test compound for 48 hours. Compounds are tested at a single concentration, which is 10^-5 M for most compounds. The reported endpoint is percent growth (GI% or GIPRCNT), where numbers from 0 - 100% represent growth inhibition, and numbers from -100% - 0 represent cell death. For example, a value of 40 represents 60% growth inhibition. […]
This is part of a sample that, as a whole, favours compounds with a hit. Of some 83,000 tested, about 20% had one in any assay.
Test Readout: growth (%)
Report as a plain number; the unit % is understood.

Sample records with growth:
1) CC1(C)CC[C@]2(c3nnc(-c4ccncc4)o3)CC[C@]3(C)C(=CC[C@@H]4[C@@]5(C)CCC(=O)C(C)(C)[C@@H]5CC[C@]43C)[C@@H]2C1; 104
2) COc1ccc(C(=S)c2cc(OC)c(OC)c(OC)c2)cc1OC(=O)CCl; 25.3
3) COc1ccc(NC(=O)c2sc3nc(C)c(C(C)=O)cc3c2N)cc1; 99.3

Would you kindly look at the next entry?
Prompt line: Consider the molecule shown here: Nc1ccccc1NC(=O)c1ccc(CSc2nc(N3CCOCC3)c3cccn3n2)cc1 What is its recorded growth?
Response line: 6.2

The measured values listed here are drawn from PubChem BioAssay (NCI).
